// values below are reported pIC50
target: human BK2 receptor (Homo sapiens, UniProt P30411)
Sequence (P30411 28-391): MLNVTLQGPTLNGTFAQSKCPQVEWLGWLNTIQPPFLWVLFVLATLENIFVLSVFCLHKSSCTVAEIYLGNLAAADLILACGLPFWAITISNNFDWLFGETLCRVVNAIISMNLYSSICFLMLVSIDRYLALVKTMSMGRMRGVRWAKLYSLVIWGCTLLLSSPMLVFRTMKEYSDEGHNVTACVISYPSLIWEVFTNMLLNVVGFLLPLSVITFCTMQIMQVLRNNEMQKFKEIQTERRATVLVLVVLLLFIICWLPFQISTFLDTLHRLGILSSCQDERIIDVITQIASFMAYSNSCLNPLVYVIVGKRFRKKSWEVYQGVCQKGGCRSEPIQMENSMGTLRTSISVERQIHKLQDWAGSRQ
pIC50: −log10 of the molar value. Square brackets hold non-standard residues; d marks the D form. Peptide text beside a SMILES is read from it. * marks the point of attachment. X21 = CN1CC[C@]23c4c5ccc(OCCCCCCCCCCCC(=O)*)c4O[C@H]2[C@@H](O)CC[C@H]3[C@H]1C5; Hyp = O=C(O)[C@@H]1C[C@@H](O)CN1; dTic = O=C(O)[C@H]1Cc2ccccc2CN1; 2Thi = N[C@@H](Cc1cccs1)C(=O)O; Gly(N-cHex) = O=C(O)CNC1CCCCC1

- compound: "CN1CC[C@]23c4c5ccc(OCc6ccc(C(=O)NCCC(=O)Nc7ccc(CC(=O)N[C@H](CCCNC(=N)N)C(=O)N[C@@H](CCCNC(=N)N)C(=O)N8CCC[C@H]8C(=O)N8C[C@H](O)C[C@H]8C(=O)NCC(=O)N[C@@H](Cc8cccs8)C(=O)N[C@@H](CO)C(=O)N8Cc9ccccc9C[C@@H]8C(=O)N(CC(=O)N[C@@H](CCCNC(=N)N)C(=O)O)C8CCCCC8)cc7)cc6)c4O[C@H]2[C@@H](O)C=C[C@H]3[C@H]1C5"
  pIC50: 8.90
- compound: "CN1CC[C@]23c4c5ccc(OCc6cccc(C(=O)NCCC(=O)Nc7ccc(CC(=O)N[C@H](CCCNC(=N)N)C(=O)N[C@@H](CCCNC(=N)N)C(=O)N8CCC[C@H]8C(=O)N8C[C@H](O)C[C@H]8C(=O)NCC(=O)N[C@@H](Cc8cccs8)C(=O)N[C@@H](CO)C(=O)N8Cc9ccccc9C[C@@H]8C(=O)N(CC(=O)N[C@@H](CCCNC(=N)N)C(=O)O)C8CCCCC8)cc7)c6)c4O[C@H]2[C@@H](O)C=C[C@H]3[C@H]1C5"
  pIC50: 9.00
- compound: "CN1CC[C@]23c4c5ccc(OCCCCCCCCCCCC(=O)NCCCC[C@H](NC(=O)[C@@H]6C[C@@H](O)CN6C(=O)[C@@H]6CCCN6C(=O)[C@H](CCCNC(=N)N)NC(=O)[C@H](N)CCCNC(=N)N)C(=O)N[C@@H](Cc6cccs6)C(=O)N[C@@H](CO)C(=O)N6Cc7ccccc7C[C@@H]6C(=O)N(CC(=O)N[C@@H](CCCNC(=N)N)C(=O)O)C6CCCCC6)c4O[C@H]2[C@@H](O)CC[C@H]3[C@H]1C5 [CP 853] (H-[dR]RP[Hyp]K(X21)[2Thi]S[dTic][Gly(N-cHex)]R-OH)"
  pIC50: 7.20
- compound: "CN1CC[C@]23c4c5ccc(O)c4O[C@H]2[C@@H](OCCCc2ccc(C(=O)N[C@H](CCCNC(=N)N)C(=O)N[C@@H](CCCNC(=N)N)C(=O)N4CCC[C@H]4C(=O)N4C[C@H](O)C[C@H]4C(=O)NCC(=O)N[C@@H](Cc4cccs4)C(=O)N[C@@H](CO)C(=O)N4Cc6ccccc6C[C@@H]4C(=O)N(CC(=O)N[C@@H](CCCNC(=N)N)C(=O)O)C4CCCCC4)cc2)C=C[C@H]3[C@H]1C5"
  pIC50: 9.30
